- measurement.description: Evaluated for the acute lethal toxicity in mice on peroral administration of dose; value may range from 1539 to 2362
- Type: organism-based
- experimental.conditions: mouse, in vivo, po
metric.name: LD50
In your response, the unit should come after the numeric value.

Incoming: I would be grateful if you could share the reported LD50 for CC(C(=O)O)c1ccc(Nc2ccccn2)cc1 (stereo unspecified) .
Outgoing: 1910 mg/kg

---

- measurement.description: Evaluated for the acute lethal toxicity in mice on peroral administration of dose; value may range from 430 to 1236
- Type: organism-based
- experimental.conditions: mouse, in vivo, po
metric.name: LD50 (mg/kg)
Quick reminder: number only, in mg/kg, skip the unit.

Incoming: For the compound CC(C(=O)O)c1ccc(Nc2ccccn2)c(Cl)c1 (stereo unspecified) , what LD50 is on record?
Outgoing: 729
